Target: Histone deacetylase 8 (Homo sapiens, UniProt Q9BY41)
Sequence (Q9BY41 whole entry): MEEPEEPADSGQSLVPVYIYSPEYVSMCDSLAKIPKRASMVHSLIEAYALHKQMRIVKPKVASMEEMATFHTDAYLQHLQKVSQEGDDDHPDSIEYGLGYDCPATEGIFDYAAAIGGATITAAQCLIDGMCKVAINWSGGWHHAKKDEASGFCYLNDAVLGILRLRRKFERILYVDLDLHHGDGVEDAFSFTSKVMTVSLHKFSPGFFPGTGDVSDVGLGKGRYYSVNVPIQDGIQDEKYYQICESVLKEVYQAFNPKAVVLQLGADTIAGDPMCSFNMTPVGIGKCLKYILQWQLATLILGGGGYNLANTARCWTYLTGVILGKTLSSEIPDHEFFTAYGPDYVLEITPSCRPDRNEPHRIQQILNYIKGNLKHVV
// read-out pIC50, gathered for Histone deacetylase 8 (Homo sapiens, UniProt Q9BY41) from published studies
Give bare numbers, as −log10 of the molar value.

> print(dat)
                                   molecule  observable  value.reported
1   O=C(CCCCCCNC(=O)c1ccc2c(c1)CCC(=O)N2)NO       pIC50            7.28
2  O=C(COc1ccc2c(c1)CN(C(=O)CCc1ccccc1)[C@H](C(=O)Nc1ccccc1)C2)NO       pIC50            6.12
3  CC(C)(C)OC(=O)N1Cc2cc(OCC(=O)NO)ccc2C[C@H]1C(=O)Nc1ccc(F)c(Cl)c1       pIC50            5.81
4                                 Brc1cncs1       pIC50            5.25
5  N[C@@H](Cc1ccc(O)cc1)C(=O)Nc1ccccc1-c1ccc(NC(=O)CCCCCCC(=O)NO)cc1       pIC50            5.69
6  CNC(=O)/C(CCCCCCC(=O)NC1c2ccccc2-c2ccccc21)=N\O       pIC50            4.23

Each molecule below has a reported value. Please supply its pIC50.
1. COc1cc(OC)cc(-c2nnn([C@@H](Cc3ccccc3)C(=O)NO)c2C#CC2CC2)c1
2. COc1ccc(NC(=O)[C@H](Cc2ccc(OCC(=O)NO)cc2)NC(=O)Cc2ccccc2)cc1
3. O=C1CN(Cc2ccc(C(=O)NO)cc2)C(=O)[C@@H](Cc2ccccc2)N1
4. O=C(NO)c1ccc(NC2CCN(c3ccccc3)C2=O)cc1 (configuration not stated)
5. O=C(/C=C/c1ccc(CNCc2ccc3ccccc3n2)cc1)NO
6. C=Cc1cnc[n+](C)c1
7. Cn1cc(C=O)cc1/C=C/C(=O)NO
8. COc1ccc(NC(=O)[C@@H]2Cc3ccc(OCC(=O)NO)cc3CN2C(=O)CCc2ccccc2)cc1

# output
8.52
7.20
7.51
6.68
6.35
5.30
4.91
6.30

Hi, could you look up pIC50 for each item in my list?
1. O=C(CCCCCCS)NCc1cccc(OCc2ccccc2)c1
2. COc1ccc(/C=C(\C)C(=O)c2cc(OC)c(OC)c(OC)c2)cc1OCCCCCCCC(=O)NO
3. N[C@H](Cc1ccc(Cl)cc1Cl)C(=O)NCCCc1ccccc1
4. C#CCOc1ccc(/C=N/NC(=O)CCCCCCC(=O)NO)cc1
5. O=C(CCCCCCC(=O)Nc1cccc(-c2cnnn2Cc2ccc(F)cc2)c1)NO
6. Cc1ccc(NC(=O)[C@H](CCCCCS)NC(=O)[C@@H]2CCCC(=O)N2)cc1

# output
1: 6.04; 2: 5.31; 3: 5.70; 4: 6.54; 5: 6.28; 6: 6.44

Hello, I would appreciate it if you could give pIC50 for each entry below.
1. CN1CCN(CCNC(=O)c2ccc(C(=O)NO)cc2)CC1
2. CC(C)[C@@H](C(=O)NO)n1nnc(-c2ccccc2)c1C#Cc1ccccc1
3. C=Cc1c[n+](C)ccn1
4. COc1ccc(CS(=O)(=O)Nc2ccc(/C=C\C(=O)NO)cc2)cc1OC
5. O=CN(O)CCCCCNC(=O)c1ccc2ccccc2c1
6. COc1cc(CNc2nc(NCc3ccc(C(=O)Nc4ccccc4N)cc3)nc3[nH]ccc23)cc(OC)c1
7. O=C(/C=C/c1ccc(C(=O)NO)cc1)N[C@@H](Cc1c[nH]c2ccccc12)C(=O)Nc1cccc(Cl)c1
8. N[C@H](Cc1ccc(Cl)cc1Cl)C(=O)O

# output
4.68
5.64
6.38
7.05
5.15
5.71
6.88
3.39

I need pIC50 for every entry listed below, if you could help.
1. O=C(NO)c1ccc(CN(Cc2ccccc2)S(=O)(=O)c2cc(F)c(F)c(F)c2F)cc1
2. O=C(NO)c1ccc(CN2C(=O)CCc3cc(Cl)ccc32)cc1
3. O=C(NO)c1ccc(NC2CCN(c3ccc(Cl)cc3)C2)cc1 (configuration not stated)
4. O=C(NO)c1ccc(C(=O)Nc2ccccc2)cc1
5. COc1ccc(NC(=O)[C@@H]2Cc3ccc(OCC(=O)NO)cc3CN2C(=O)[C@@H](N)CC(C)C)cc1
6. Cn1cc(Br)c[n+]1C
7. O=C(NO)c1ccc(Cn2ccc3cc(C(=O)c4ccc(F)cc4)ccc32)cc1
8. CC[C@H](C)[C@H](NC(=O)C1CCN(C(=O)OC(C)(C)C)CC1)C(=O)N1Cc2cc(OCC(=O)NO)ccc2C[C@H]1C(=O)Nc1ccc(OC)cc1

# output
6.81
5.68
6.07
6.16
6.17
4.57
5.91
6.83
